target or test system: EV-A71 Δ2C^116-329 (Enterovirus A71, UniProt B9VUU3)
Construct: N-terminally truncated mature protein 2C residues 116-329, cut from the genome polyprotein; N-terminal MBP tag and C-terminal His6 (kept, MBP-Δ2C-(His)6); codon-optimised synthetic gene in pMALc5x, E. coli Rosetta 2(DE3) pLysS; active as hexamer
Sequence (B9VUU3 1227-1440, stated change not applied): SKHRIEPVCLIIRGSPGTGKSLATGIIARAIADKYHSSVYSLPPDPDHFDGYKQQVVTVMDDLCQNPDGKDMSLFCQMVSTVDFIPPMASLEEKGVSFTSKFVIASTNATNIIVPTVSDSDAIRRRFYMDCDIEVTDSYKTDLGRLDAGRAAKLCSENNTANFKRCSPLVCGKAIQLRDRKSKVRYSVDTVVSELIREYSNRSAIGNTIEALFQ
procedure text: malachite green ATPase assay
measurement kind: pIC50
Numbers only, as −log10 of the molar value.

smi=Cc1ccc2[nH]c(-c3ccc(NC(=O)c4ccc(C)c(C)c4)cc3)nc2c1 target_or_test_system="EV-A71 Δ2C^116-329 (Enterovirus A71, UniProt B9VUU3)" measurement_kind=pIC50 result_value=4.26
smi=Cc1ccc2[nH]c(-c3ccc(NC(=O)c4cccs4)cc3)nc2c1 target_or_test_system="EV-A71 Δ2C^116-329 (Enterovirus A71, UniProt B9VUU3)" measurement_kind=pIC50 result_value=4.63

Here's the next entry for you.
For the compound shown here, O=C(Nc1ccc(-c2nc3cc4ccccc4cc3[nH]2)cc1)c1cccc(Br)c1 , give the reported pIC50.
4.48
